- targetEntity: RANTES/MIP-1α chemokine receptor (CCR1) in THP-1 cell membranes (Homo sapiens)
- Construct: Membranes were prepared from THP-1 cells (ATCC #TIB202); host or cells: THP-1 cells (membrane preparation)
- Sequence (P32246 whole entry): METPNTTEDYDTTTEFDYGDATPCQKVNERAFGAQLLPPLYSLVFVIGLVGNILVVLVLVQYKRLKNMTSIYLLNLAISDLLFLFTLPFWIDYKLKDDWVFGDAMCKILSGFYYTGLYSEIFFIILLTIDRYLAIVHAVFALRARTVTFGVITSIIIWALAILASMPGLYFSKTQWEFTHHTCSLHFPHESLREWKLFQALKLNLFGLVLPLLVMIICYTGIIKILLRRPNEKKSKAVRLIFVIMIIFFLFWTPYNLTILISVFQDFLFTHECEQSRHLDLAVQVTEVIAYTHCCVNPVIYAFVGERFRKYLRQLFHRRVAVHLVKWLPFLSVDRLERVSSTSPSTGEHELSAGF
- test: Receptor binding assay: 125I-RANTES or 125I-MIP-1α binding to THP-1 cell membranes
- measurementConditions: inhibitor concentration required for 50% inhibition of specific binding; 125I-RANTES or 125I-MIP-1α as ligand, THP-1 cell membranes; read-out: IC50
pIC50: −log10 of the molar value.
pIC50 overview

Examples from the recorded data:
- molecule: "CN(C)C(=O)C=Cc1ccc2c(c1)C(=CCCN1CCC(O)(c3ccc(Cl)cc3)CC1)c1cccnc1CO2"
  targetEntity: "RANTES/MIP-1α chemokine receptor (CCR1) in THP-1 cell membranes (Homo sapiens)"
  pIC50: "> 6.00"
- molecule: "CC1(C)CN(CCC=C2c3cc(CC(O)CO)ccc3OCc3ncccc32)CCC1(O)c1ccc(Cl)cc1 (stereo not shown)"
  targetEntity: "RANTES/MIP-1α chemokine receptor (CCR1) in THP-1 cell membranes (Homo sapiens)"
  pIC50: "> 6.00"
- molecule: "CC(C)(O)c1ccc2c(c1)C(=CCCN1CCN(c3ccc(Cl)cc3)C(C(N)=O)C1)c1cccnc1CO2 (stereo not shown)"
  targetEntity: "RANTES/MIP-1α chemokine receptor (CCR1) in THP-1 cell membranes (Homo sapiens)"
  pIC50: "> 5.00"
- molecule: "CC(C)(O)c1ccc2c(c1)C(=CCCN1CCC(F)(c3ccc(Cl)cc3)CC1)c1cccnc1CO2"
  targetEntity: "RANTES/MIP-1α chemokine receptor (CCR1) in THP-1 cell membranes (Homo sapiens)"
  pIC50: "> 6.00"
- molecule: "CC(C)(O)c1ccc2c(c1)C(=CCCN1CCC(Oc3ccc(C(F)(F)F)cc3)CC1)c1cccnc1CO2"
  targetEntity: "RANTES/MIP-1α chemokine receptor (CCR1) in THP-1 cell membranes (Homo sapiens)"
  pIC50: "> 5.00"

Q: Recorded pIC50 for CC(C)(O)c1ccc2c(c1)C(=CCCN1CCC(O)(c3ccc(Cl)cc3)C(N=[N+]=[N-])C1)c1cccnc1CO2 (stereo not shown) with RANTES/MIP-1α chemokine receptor (CCR1) in THP-1 cell membranes (Homo sapiens), please?
Result: > 6.00

Q: Field entry: COC1(c2ccc(Cl)cc2)CCN(CCC=C2c3cc(C(C)(C)O)ccc3OCc3ncccc32)CC1
Result: > 6.00
